test system: A498 renal; test: NCI tumour cell line growth inhibition, 48 h
I'd be grateful if you could share measured TGI for these entries.
Give the number; µM is assumed, so skip it.

Lookup: TGI / A498 renal / COc1ccc(-c2cc(C(O)C3CCCCN3)c3ccccc3n2)cc1 (stereo not given)
25.4

Lookup: TGI / A498 renal / COc1cccc(/C=C/C(=O)c2cc3c(N)c(C(=O)Nc4cccc5ccccc45)sc3nc2C)c1
2.74

Lookup: TGI / A498 renal / O=C1c2ccccc2C(=O)N1c1nc(-c2ccc(Cl)cc2)cc(N2N=C(c3ccc(Br)cc3)CC2c2ccccc2)n1 (stereo not given)
35.4

Lookup: TGI / A498 renal / CCSC(SCC)=C1C(=O)N(c2ccccc2)N=C1C
28.8

Lookup: TGI / A498 renal / Oc1[nH]c2cc(Cl)ccc2c1/C=c1/ccc2c(c1)N=C(c1cc(F)cc(F)c1)N=2
6.36

Lookup: TGI / A498 renal / COc1ccccc1CNCCCCCCCCCCCCN1C(=O)c2ccc3c4c(ccc(c24)C1=O)C(=O)N(CCCCCCCCCCCCNCc1ccccc1OC)C3=O
1.8

Lookup: TGI / A498 renal / C=C1C(=O)O[C@H]2[C@H]3O[C@@H](C[C@@H]12)[C@](C)(O)CC[C@@H]1O[C@@]1(C)CCC[C@H]3C
73.2

Lookup: TGI / A498 renal / CC(=O)/C(=C\c1ccc(Cl)c(Cl)c1)C(=O)C(C)CN(C)C (stereo not given)
8.16

Lookup: TGI / A498 renal / CSc1ccc(/C=C2\N=C(c3ccccc3)N(/N=C/c3cc4cc(C)ccc4nc3Cl)C2=O)cc1
43

Lookup: TGI / A498 renal / CN(C)c1ccc(/C=C2\N=C(c3ccccc3)N(c3ccc4c(c3)Sc3cc(N5C(=O)/C(=C/c6ccc(N(C)C)cc6)N=C5c5ccccc5)ccc3N4)C2=O)cc1
31.8

Lookup: TGI / A498 renal / CO[C@]1(CN2CCN3CCCC[C@@H]3C2)/C=C/C[C@H](C)[C@@H](C)S(=O)(=O)NC(=O)c2ccc3c(c2)N(C[C@@H]2CC[C@H]21)C[C@@]1(CCCc2cc(Cl)ccc21)CO3
6.48

Lookup: TGI / A498 renal / COC1(OC)c2no[n+]([O-])c2C(OC)(OC)c2c1no[n+]2[O-]
34.6

Lookup: TGI / A498 renal / Cc1ccc(S(=O)(=O)N(CC(O)COc2ccccc2)c2ccc(F)cc2F)cc1 (stereo not given)
28.7

Lookup: TGI / A498 renal / COc1ccc(C(O)CC(O)(C(F)(F)F)C(F)(F)F)cc1 (stereo not given)
64.1

====

Entries with their measured GI50, system K-562 leukemia:

Data request, read-out GI50, for CC/C=C\C/C=C\C[C@H](O)C/C=C1/C(=O)C=C[C@@H]1C/C=C\CCCC(=O)OC
0.546 µM

Data request, read-out GI50, for CC1COCC(C)N1C1=C(Cl)C(=O)c2ccccc2C1=O (stereo unspecified)
2.81 µM

Data request, read-out GI50, for O=c1c2ccccc2oc2ccc(OCCCCCCN3CCCCCC3)cc12
1.96 µM

Data request, read-out GI50, for CCC(CC(C)C)Nc1ccc(NC(CC)CC(C)C)cc1 (stereo unspecified)
10.7 µM

Data request, read-out GI50, for Nc1ccc(S(=O)(=O)Nc2cnc3c(Cl)cccc3n2)cc1
36.4 µM

Data request, read-out GI50, for O=C(Cc1csc2nc(-c3ccc(Br)cc3)cn12)N/N=C/c1ccc(O)cc1
1.83 µM
